system: NEAT1_2 TH (RNA, triplex) AGGUGUUUCUUUUACUGAGUGCAGCCC/UGGCCGCACUCAGGUUUUGCUUUUCACCUUCCCAUCUGUGAAAGAGUGAGCAGGAAAAAGCAAAA; assay: fluorescent intercalator displacement (FID) screen; settings: 100 mM KCl, 4 mM MgCl2; 20 mM Tris-HCl pH 7.0, 2% DMSO; TO-PRO displaced; RNA 0.25 μM; hit at 10 μM
readout_type: binding

Some compounds with known binding results, for comparison:
- structure_string: "O=C1Nc2ccc(I)cc2/C1=C/c1cc(Br)c(O)c(Br)c1"
  binding: "yes"
- structure_string: "O=c1c(O)c(-c2ccc(O)c(O)c2)oc2cc(O)cc(O)c12"
  binding: "yes"
- structure_string: "COc1ccc(Br)cc1S(=O)(=O)NC(=O)/C=C/c1ccccc1Cc1ccc2ccccc2c1"
  binding: "yes"
- structure_string: "O=c1c(O)c(-c2cc(O)c(O)c(O)c2)oc2cc(O)cc(O)c12"
  binding: "yes"
- structure_string: "Cc1cc(O)c2c(c1)C(=O)c1cc(O)cc(O)c1C2=O"
  binding: "yes"
- structure_string: "O=C(O)C1=CC(=C(c2ccc(O)c(C(=O)O)c2)c2ccc(O)c(C(=O)O)c2)C=CC1=O"
  binding: "yes"

[in] # lookup: binding of `O=C1c2c(O)ccc(O)c2C(=O)c2c(NCCNCCO)ccc(NCCNCCO)c21`
[out] yes

[in] Fill in: binding of `NCCOc1cc(C(=O)Nc2cc(OCCN)c3ccccc3n2)nc(C(=O)Nc2cc(OCCN)c3ccccc3n2)c1` is ___
[out] yes
